System: RKO
test details: Antiproliferative activity against human RKO cells assessed as reduction in cell viability incubated for 24 hrs
Format: functional, cell-based
readout name: pIC50
Quick note: pIC50 means taking -log10 of the concentration in moles per liter.

>>> value_observed("CN(C)c1nc(-c2[nH]c3ccccc3c2C=O)nc2ccccc12")
5.32

Field pIC50 (entry COCCNc1nc(-c2[nH]c3ccccc3c2C=O)nc2ccccc12 ) reads 5.39

Field pIC50 (entry O=Cc1c(-c2nc(NCCNC(=O)C3CC3)c3ccccc3n2)[nH]c2ccccc12 ) reads 5.92

Field pIC50 (entry O=Cc1c(-c2nc(NCCCC(=O)N3CCCC3)c3ccccc3n2)[nH]c2ccccc12 ) reads 5.06

Field pIC50 (entry COCCCNc1nc(-c2[nH]c3ccccc3c2C=O)nc2ccccc12 ) reads 5.96

Field pIC50 (entry CC(C)(C)OC(=O)NCCCNc1nc(-c2[nH]c3ccccc3c2C=O)nc2ccccc12 ) reads 5.27

Field pIC50 (entry CN(C)CC(C)(C)CNc1nc(-c2[nH]c3ccccc3c2C=O)nc2ccccc12 ) reads 5.28

Field pIC50 (entry COC(=O)c1c(-c2nc(NCCN3CCCC3)c3ccccc3n2)[nH]c2ccccc12 ) reads 5.21

Field pIC50 (entry CN(C)CCCNc1nc(-c2[nH]c3ccccc3c2C=O)nc2ccccc12 ) reads 5.77

Field pIC50 (entry O=Cc1c(-c2nc(NCCc3ccccc3)c3ccccc3n2)[nH]c2ccccc12 ) reads 6.10
